PROTOCOL: small molecules captured by biotinylated probe aFSTL3 – biochemical, small-molecule microarray, fluorescence 635/667, stem cell growth factor project, primary screen (AID 1064);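 further: measures binding of the biotinylated anti-FSTL3 antibody to printed compounds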
REPORTED_CONDITIONS: higher = more signal
PROPERTY_NAME: composite z-score
Give your answer as a number; write no unit.

# MOLECULE, composite z-score
measured = [
    ("Oc1ccc2cc[n+](Cc3cc4c(cc3Br)OCO4)cc2c1", 0.254),
    ("COCCOC(=O)N1C(=O)[C@@]2(c3cc(C#CC4(O)CCCCCC4)ccc31)[C@H](C(=O)N1CCc3cc(OC)c(OC)cc3C1)[C@H]1C(=O)O[C@H](c3ccccc3)[C@H](c3ccccc3)N1[C@@H]2c1ccc(OCCO)cc1", -0.409),
    ("CCOC(=O)C=Cc1cccc(C)c1O", -0.071),
    ("CC(C)c1ccc(NN2C(C(O)c3ccc(C#N)cc3)C=CC3C(=O)N(c4ccccc4)C(=O)C32)cc1 (stereo not given)", 0.546),
    ("COC(=O)[C@]1(CCS(=O)(=O)c2ccccc2)N=C(c2ccc(OCCCO)cc2)O[C@@H]1c1ccccc1N=[N+]=[N-]", 0.48),
]

Incoming: State its composite z-score for this molecule: [N-]=[N+]=Nc1ccccc1C[C@@]1(C(=O)N2CCOCC2)N=C(c2ccc(OCCCO)cc2)O[C@@H]1c1ccccc1
Outgoing: -0.4

Incoming: Provide one value: measured composite z-score of CC1CC/C=C\[C@H]2OC34C=CCN(c5ccc6ccccc6c5)C(=O)[C@H]3N(CCCO)C(=O)[C@@H]4C2C(=O)O1 (stereo not given in full)
Outgoing: 0.932

====

MEASURED_TARGET: Follistatin (Homo sapiens) (UniProt P19883)
Sequence (P19883 whole entry, looked up): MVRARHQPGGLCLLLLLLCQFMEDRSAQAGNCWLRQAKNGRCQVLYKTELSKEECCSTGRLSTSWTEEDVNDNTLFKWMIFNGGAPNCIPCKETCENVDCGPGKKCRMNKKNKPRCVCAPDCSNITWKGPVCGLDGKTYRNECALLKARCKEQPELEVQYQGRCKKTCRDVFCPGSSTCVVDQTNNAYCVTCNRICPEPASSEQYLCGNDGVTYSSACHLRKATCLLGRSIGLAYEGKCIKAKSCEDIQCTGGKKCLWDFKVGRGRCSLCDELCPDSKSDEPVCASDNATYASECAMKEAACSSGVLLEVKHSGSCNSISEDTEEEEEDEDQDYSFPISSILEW
PROTOCOL: FST protein binding to printed compounds – biochemical, small-molecule microarray, 635/667 nm fluorescence, primary screen (AID 1132)
REPORTED_CONDITIONS: 635 nm fluorescence, higher = more signal
Think of 0.3 as a floor: if composite z-score stands on it or above, it is label 1; beneath it, label 0.

# count of solved cases: 8
# MOLECULE, CLASS_LABEL
rows = [
    ("C=CCC(OC(C)=O)[C@@H]1[C@@H](N(Cc2ccc(-c3cccc(C(F)(F)F)c3)o2)C(=O)c2ccc(-c3ccccc3)cc2)c2cc(OCCCO)ccc2N1C(=O)Cc1ccc2ccccc2c1 (stereo partly specified)", "label 1"),
    ("C=CCNC(=O)[C@@H]1[C@H]2C(=O)O[C@H](c3ccccc3)[C@H](c3ccccc3)N2[C@H](c2ccc(O)cc2)[C@@]12C(=O)N(C(=O)OCCOC)c1ccc(C#CC3=CCCCC3)cc12", "label 1"),
    ("COC(=O)[C@@]1(Cc2ccc(OC)cc2)[C@H]2c3cc(C(=O)N(C)C)n(Cc4ccc(OC(F)(F)F)cc4)c3C[C@H]2CN1C(=O)c1ccccc1", "label 0"),
    ("CC1CC/C=C\\[C@H]2OC34C=CCN(C(C)(C)C)C(=O)[C@H]3N(CCCCCO)C(=O)[C@@H]4C2C(=O)O1 (stereo partly specified)", "label 0"),
    ("O=c1cccc(-c2ccc([N+](=O)[O-])cc2)o1", "label 1"),
    ("COCC(=C=CC[C@H](O)c1ccccc1OCCO)C[C@H](O)c1ccccn1", "label 1"),
    ("C=CC[C@@]1(C(=O)NCCCOC)N=C(c2ccc(OCCCO)cc2)O[C@@H]1c1ccccc1N=[N+]=[N-]", "label 1"),
    ("CCCCCC1=C2CNC(C)(C(=O)OC)C=C2C(C)C1=O (stereo unspecified)", "label 0"),
]

Next, consider the following molecule.
Incoming: Would you say CCOC(=O)C[C@H]1[C@H](OC(=O)Cc2ccc3c(c2)OCO3)[C@@H](NC(=O)C2CCCCC2)c2cc(OCCCO)ccc2N1C(=O)c1ccccc1 shows composite z-score at minimum 0.3?
Outgoing: label 0
